# TESTED TARGET: ROCK2 (Homo sapiens)
# Construct: T7 phage fusion (kinase-tagged phage) or DNA tag for qPCR detection
# TEST PROTOCOL: ROCK2 kinase binding affinity, DiscoverX KINOMEscan KdELECT
# CONDITION INFO: KINOMEscan KdELECT, 11-point 3-fold dilution; read-out: Kd (μM) ROCK2
# Description: 1. ROCK1 and ROCK2 kinase assays: The ROCK1 and ROCK2 kinase binding affinities of compounds in this disclosure were determined by DiscoverX's KINOMEscan™ KdELECT technology (https://www.discoverx.com/kinomescan-elect-kinase-screening-and-profiling-services): Kinase-tagged T7 phage strains were prepared in an E. coli host derived from the BL21 strain. […] Kds were determined using an 11-point 3-fold compound dilution series with three DMSO control points. […]
For each record, write down the corresponding Kd.

Worked examples follow.
COMPOUND | Kd
OC[C@H]1CC[C@@H](CNc2nccc(-c3nccc(C#Cc4ccc5[nH]ncc5c4)n3)n2)O1 [Ex. 51] | < 0.01 µM
Cc1cnc(CNc2nccc(-c3nccc(C#Cc4ccc5[nH]ncc5c4)n3)n2)nc1 [Ex. 4] | 0.1 to 0.99 µM
C(#Cc1ccnc(-c2ccnc(NCC3CCCCN3)n2)n1)c1ccc2[nH]ncc2c1 (stereo not shown) [Ex. 9] | 0.1 to 0.99 µM

Q. Please report the measured Kd for O[C@H]1CC[C@@H](Nc2nccc(-c3nccc(C#Cc4ccc5[nH]nc(F)c5c4)n3)n2)C1 [Ex. 94]
A. < 0.01 µM

---

For each record, write down the corresponding Kd.
# TESTED TARGET: ROCK2 (Homo sapiens, UniProt O75116)
# Construct: T7 phage fusion (kinase-tagged phage) or DNA tag for qPCR detection
# Sequence (O75116 whole entry, the tested form may be a part): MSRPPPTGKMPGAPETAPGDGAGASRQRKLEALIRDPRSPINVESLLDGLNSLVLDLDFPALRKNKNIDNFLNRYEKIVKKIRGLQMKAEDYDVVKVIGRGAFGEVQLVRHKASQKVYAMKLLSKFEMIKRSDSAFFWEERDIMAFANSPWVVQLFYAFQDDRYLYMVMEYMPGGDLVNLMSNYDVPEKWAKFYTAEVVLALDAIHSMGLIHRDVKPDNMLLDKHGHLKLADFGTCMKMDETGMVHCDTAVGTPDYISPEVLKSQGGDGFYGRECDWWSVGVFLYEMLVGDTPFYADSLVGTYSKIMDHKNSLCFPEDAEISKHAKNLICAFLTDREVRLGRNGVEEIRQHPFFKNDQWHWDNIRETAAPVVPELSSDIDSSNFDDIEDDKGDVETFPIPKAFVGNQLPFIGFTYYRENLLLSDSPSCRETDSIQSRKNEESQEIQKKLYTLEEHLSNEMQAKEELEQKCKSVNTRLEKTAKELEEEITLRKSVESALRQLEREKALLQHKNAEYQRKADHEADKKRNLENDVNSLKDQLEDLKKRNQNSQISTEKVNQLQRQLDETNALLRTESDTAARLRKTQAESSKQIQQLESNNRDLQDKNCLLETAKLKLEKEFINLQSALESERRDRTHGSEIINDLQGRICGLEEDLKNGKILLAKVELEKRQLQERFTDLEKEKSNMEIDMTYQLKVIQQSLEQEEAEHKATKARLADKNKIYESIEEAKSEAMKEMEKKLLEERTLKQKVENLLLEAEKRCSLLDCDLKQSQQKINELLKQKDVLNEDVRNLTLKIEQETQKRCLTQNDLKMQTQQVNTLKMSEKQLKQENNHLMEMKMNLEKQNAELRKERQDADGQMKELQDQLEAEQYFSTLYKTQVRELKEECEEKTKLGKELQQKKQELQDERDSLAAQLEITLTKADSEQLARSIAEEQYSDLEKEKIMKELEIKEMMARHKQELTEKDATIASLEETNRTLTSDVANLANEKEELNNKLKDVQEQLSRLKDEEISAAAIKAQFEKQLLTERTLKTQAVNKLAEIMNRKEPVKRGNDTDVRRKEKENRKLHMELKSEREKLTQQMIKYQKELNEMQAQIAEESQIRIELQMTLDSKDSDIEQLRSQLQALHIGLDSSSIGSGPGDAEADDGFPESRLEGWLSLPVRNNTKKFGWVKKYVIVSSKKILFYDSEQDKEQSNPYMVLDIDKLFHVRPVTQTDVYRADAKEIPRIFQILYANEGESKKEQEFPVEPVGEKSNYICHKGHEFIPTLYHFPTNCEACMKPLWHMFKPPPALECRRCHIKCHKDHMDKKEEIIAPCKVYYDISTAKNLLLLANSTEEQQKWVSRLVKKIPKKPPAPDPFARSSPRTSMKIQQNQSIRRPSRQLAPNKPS
# TEST PROTOCOL: ROCK2 kinase binding affinity, DiscoverX KINOMEscan KdELECT
# CONDITION INFO: KINOMEscan KdELECT, 11-point 3-fold dilution; read-out: Kd (μM) ROCK2
Structures can show the parent of a compound that is named as a salt.

Worked examples follow.
COMPOUND | Kd
C(#Cc1ccnc(-c2ccnc(NCc3ccc4c(c3)CNC4)n2)n1)c1ccc2[nH]ncc2c1 [Ex. 20, trifluoroacetate salt] | 0.01 to 0.099 µM
C(#Cc1ccnc(-c2ccnc(N[C@@H]3CCOC3)n2)n1)c1ccc2[nH]ncc2c1 | < 0.01 µM

Return reported Kd values for all items listed beneath this line.
1. Fc1n[nH]c2ccc(C#Cc3ccnc(-c4ccnc(NCC5CCCO5)n4)n3)cc12 (stereo not shown)
2. O[C@H]1CC[C@@H](Nc2nccc(-c3nccc(C#Cc4ccc5[nH]ncc5c4)n3)n2)CC1

A.
1: < 0.01 µM; 2: < 0.01 µM

---

For each record, write down the corresponding Kd.
# TESTED TARGET: ROCK1 (Homo sapiens)
# Construct: T7 phage fusion (kinase-tagged phage) or DNA tag for qPCR detection
# TEST PROTOCOL: ROCK1 kinase binding affinity, DiscoverX KINOMEscan KdELECT
# CONDITION INFO: 11-point 3-fold dilution

Worked examples follow.
COMPOUND | READOUT VALUE
Fc1n[nH]c2ccc(C#Cc3ccnc(-c4ccnc(NCC5CCCO5)n4)n3)cc12 (stereo not shown) | 1 to 9.9 µM
O=C(CNc1nccc(-c2nccc(C#Cc3ccc4[nH]ncc4c3)n2)n1)N1CC[C@H](O)C1 | 0.1 to 0.99 µM
Fc1ccc(CCNc2nccc(-c3nccc(C#Cc4ccc5[nH]ncc5c4)n3)n2)nc1 | 1 to 9.9 µM

Q. Please report the measured Kd for O=S1(=O)CC[C@@H](Nc2nccc(-c3nccc(C#Cc4ccc5[nH]ncc5c4)n3)n2)C1
A. 0.1 to 0.99 µM

---

# TESTED TARGET: ROCK1 (Homo sapiens, UniProt Q13464)
# Construct: T7 phage fusion (kinase-tagged phage) or DNA tag for qPCR detection
# Sequence (Q13464 whole entry, the tested form may be a part): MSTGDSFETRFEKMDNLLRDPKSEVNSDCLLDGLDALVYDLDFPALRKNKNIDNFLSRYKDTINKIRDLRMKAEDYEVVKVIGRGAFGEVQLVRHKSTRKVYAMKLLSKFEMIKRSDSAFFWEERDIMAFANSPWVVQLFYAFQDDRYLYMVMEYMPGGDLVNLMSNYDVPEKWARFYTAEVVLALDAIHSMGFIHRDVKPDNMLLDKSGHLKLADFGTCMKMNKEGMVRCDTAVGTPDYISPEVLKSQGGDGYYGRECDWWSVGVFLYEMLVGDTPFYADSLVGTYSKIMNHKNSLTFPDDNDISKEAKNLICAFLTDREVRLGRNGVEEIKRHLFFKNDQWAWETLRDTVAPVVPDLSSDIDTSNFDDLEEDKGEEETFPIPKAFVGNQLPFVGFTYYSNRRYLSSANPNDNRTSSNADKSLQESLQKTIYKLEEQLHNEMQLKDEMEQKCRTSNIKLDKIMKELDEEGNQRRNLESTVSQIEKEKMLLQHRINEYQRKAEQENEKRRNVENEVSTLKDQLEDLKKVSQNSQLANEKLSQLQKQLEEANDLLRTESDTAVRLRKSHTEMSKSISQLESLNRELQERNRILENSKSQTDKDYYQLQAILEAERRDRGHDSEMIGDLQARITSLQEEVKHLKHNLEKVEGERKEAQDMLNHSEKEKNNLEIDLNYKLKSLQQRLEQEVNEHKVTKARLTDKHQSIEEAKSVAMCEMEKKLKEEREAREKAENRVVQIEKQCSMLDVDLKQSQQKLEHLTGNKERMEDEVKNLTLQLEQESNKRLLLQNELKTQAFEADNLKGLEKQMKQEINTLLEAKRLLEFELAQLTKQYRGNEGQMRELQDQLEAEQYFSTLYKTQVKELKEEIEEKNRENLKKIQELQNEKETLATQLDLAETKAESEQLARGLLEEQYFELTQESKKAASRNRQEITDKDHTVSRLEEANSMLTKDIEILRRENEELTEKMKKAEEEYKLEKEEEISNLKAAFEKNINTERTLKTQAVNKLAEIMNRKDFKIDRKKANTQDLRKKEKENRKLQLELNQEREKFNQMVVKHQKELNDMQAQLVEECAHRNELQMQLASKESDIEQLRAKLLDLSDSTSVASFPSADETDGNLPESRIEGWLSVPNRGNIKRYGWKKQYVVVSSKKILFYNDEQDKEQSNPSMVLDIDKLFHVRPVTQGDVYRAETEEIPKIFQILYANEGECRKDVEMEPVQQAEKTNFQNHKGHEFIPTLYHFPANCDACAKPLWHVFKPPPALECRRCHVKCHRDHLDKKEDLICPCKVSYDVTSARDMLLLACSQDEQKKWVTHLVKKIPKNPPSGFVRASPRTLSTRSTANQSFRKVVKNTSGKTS
# TEST PROTOCOL: ROCK1 kinase binding affinity, DiscoverX KINOMEscan KdELECT
# CONDITION INFO: 11-point 3-fold dilution
For each record, write down the corresponding Kd.

MOLECULE | MEASUREMENT NAME | READOUT VALUE
CC(Nc1nccc(-c2nccc(C#Cc3ccc4[nH]ncc4c3)n2)n1)C1CCCO1 (stereo not drawn) [Ex. 67] | Kd | 1 to 9.9 µM
Cc1ccc(CNc2nccc(-c3nccc(C#Cc4ccc5[nH]ncc5c4)n3)n2)nc1 [Ex. 24] | Kd | 0.1 to 0.99 µM
O=C(CNc1nccc(-c2nccc(C#Cc3ccc4[nH]ncc4c3)n2)n1)N1CCCC1 [Ex. 52] | Kd | 0.1 to 0.99 µM
Fc1cc(F)c(F)c(CNc2nccc(-c3nccc(C#Cc4ccc5[nH]ncc5c4)n3)n2)c1 [Ex. 37] | Kd | 1 to 9.9 µM
C(#Cc1ccnc(-c2ccnc(NCc3ccco3)n2)n1)c1ccc2[nH]ncc2c1 [Ex. 40] | Kd | 0.1 to 0.99 µM

Return reported Kd values for all items listed beneath this line.
1. COCCNc1nccc(-c2nccc(C#Cc3ccc4[nH]ncc4c3)n2)n1 [Ex. 75]
2. Fc1cnccc1CNc1nccc(-c2nccc(C#Cc3ccc4[nH]ncc4c3)n2)n1 [Ex. 31]
3. C(#Cc1ccnc(-c2ccnc(NC[C@@H]3CCCO3)n2)n1)c1ccc2[nH]ncc2c1 [Ex. 35]

A.
1. 1 to 9.9 µM
2. 1 to 9.9 µM
3. 0.1 to 0.99 µM

Q. Look up and report measured Kd (ROCK1 (Homo sapiens, UniProt Q13464)) for the following molecule: Cc1cnc(F)c(CNc2nccc(-c3nccc(C#Cc4ccc5[nH]ncc5c4)n3)n2)c1 [Ex. 72]
A. 10 to 100 µM

---

# TESTED TARGET: ROCK1 (Homo sapiens)
# Construct: T7 phage fusion (kinase-tagged phage) or DNA tag for qPCR detection
# TEST PROTOCOL: ROCK1 kinase binding affinity, DiscoverX KINOMEscan KdELECT
# CONDITION INFO: 11-point 3-fold dilution
MEASUREMENT NAME: Kd

Worked examples follow.
COMPOUND | Kd
C(#Cc1ccnc(-c2ccnc(NCc3ccccn3)n2)n1)c1ccc2[nH]ncc2c1 | 1 to 9.9 µM
O=C(O)[C@H]1CC[C@H](Nc2nccc(-c3nccc(C#Cc4ccc5[nH]ncc5c4)n3)n2)CC1 | 1 to 9.9 µM
Fc1cc(F)c(F)c(CNc2nccc(-c3nccc(C#Cc4ccc5[nH]nc(F)c5c4)n3)n2)c1 | 10 to 100 µM

Return reported Kd values for all items listed beneath this line.
1. C(#Cc1ccnc(-c2ccnc(NC[C@H]3CCCO3)n2)n1)c1ccc2[nH]ncc2c1
2. C(#Cc1ccnc(-c2ccnc(NCC3CCCC3)n2)n1)c1ccc2[nH]ncc2c1
3. O[C@H]1CC[C@@H](Nc2nccc(-c3nccc(C#Cc4ccc5[nH]ncc5c4)n3)n2)C1
4. Fc1cccc(CNc2nccc(-c3nccc(C#Cc4ccc5[nH]ncc5c4)n3)n2)n1
5. C(#Cc1ccnc(-c2ccnc(NCc3cc4ccccc4cn3)n2)n1)c1ccc2[nH]ncc2c1

A.
1: 0.1 to 0.99 µM; 2: 10 to 100 µM; 3: 0.1 to 0.99 µM; 4: 1 to 9.9 µM; 5: 0.1 to 0.99 µM

Return reported Kd values for all items listed beneath this line.
1. COc1ccnc(CNc2nccc(-c3nccc(C#Cc4ccc5[nH]ncc5c4)n3)n2)c1
2. CC1(C)CCC(CNc2nccc(-c3nccc(C#Cc4ccc5[nH]ncc5c4)n3)n2)O1 (stereo not drawn)
3. [2H]C([2H])(Nc1nccc(-c2nccc(C#Cc3ccc4[nH]ncc4c3)n2)n1)c1ccccn1
4. O[C@H]1CC[C@@H](Nc2nccc(-c3nccc(C#Cc4ccc5[nH]nc(F)c5c4)n3)n2)CC1
5. C[C@@H](O)CNc1nccc(-c2nccc(C#Cc3ccc4[nH]ncc4c3)n2)n1
6. Fc1ccc(CNc2nccc(-c3nccc(C#Cc4ccc5[nH]ncc5c4)n3)n2)cn1
7. O[C@H]1CC[C@@H](Nc2nccc(-c3nccc(C#Cc4ccc5[nH]cnc5c4)n3)n2)CC1
8. C(#Cc1ccnc(-c2ccnc(NCc3ccccc3)n2)n1)c1ccc2[nH]ncc2c1

A.
["0.1 to 0.99 µM", "0.1 to 0.99 µM", "0.1 to 0.99 µM", "1 to 9.9 µM", "1 to 9.9 µM", "1 to 9.9 µM", "10 to 100 µM", "1 to 9.9 µM"]

Return reported Kd values for all items listed beneath this line.
1. O=C(CNc1nccc(-c2nccc(C#Cc3ccc4[nH]ncc4c3)n2)n1)NC12CCC(CC1)C2
2. Fc1cncc(CNc2nccc(-c3nccc(C#Cc4ccc5[nH]ncc5c4)n3)n2)c1
3. Fc1cc(C#Cc2ccnc(-c3ccnc(NCC4CCCO4)n3)n2)cc2cn[nH]c12 (stereo not drawn)
4. CN1CCN(C(=O)CNc2nccc(-c3nccc(C#Cc4ccc5[nH]ncc5c4)n3)n2)CC1

A.
1: 0.1 to 0.99 µM; 2: 1 to 9.9 µM; 3: 1 to 9.9 µM; 4: 0.1 to 0.99 µM
